tested on: UACC-62 melanoma; assay: NCI tumour cell line growth inhibition, 48 h
Reported endpoint: TGI

Nc1c(C(=O)Nc2ccccc2F)sc2nc3c(cc12)C(=O)CCC3; > 100 µM
O=C(O)c1ccc2c(c1)nc(Nc1cccc(Cl)c1)c1ccncc12; 6.16 µM
CN(C)c1ccc(/C=N\N2C(=O)c3ccccc3C2=O)cc1; > 100 µM
COc1cc2c(cc1OC)C(=O)C(C1=C(SC(=N)N)C(=O)c3cc(OC)c(OC)cc31)C2 (stereo not given); > 100 µM
C=CC[C@@H]1C(=O)[C@@]2(O[Si](C(C)C)(C(C)C)C(C)C)CC[C@@H]1C[C@H]2NC(=O)OCC(Cl)(Cl)Cl; > 100 µM
CCOC(=O)c1ccc(-n2c(SCC)nc3sc(C)c(C)c3c2=O)cc1; > 100 µM
COc1ccc2c(c1)[n+](=O)c(C(=O)/C=C/c1cc(OC)c(OC)c(OC)c1)c(C)n2[O-]; 37.3 µM
O=C(O)c1oc(C(=O)O)c(C(=O)O)c1C(=O)O; > 100 µM

Okay, here is my list. What is TGI for each of these?
1. COc1cc(N(CCC#N)CCC#N)ccc1/C(N=Nc1ccccc1)=N/NC(=O)c1cc(Br)ccc1O
2. Cc1c2c(n(CCN(C)C)c1C)NN=C(C#N)S2(=O)=O
3. N#CC(Cc1ccccc1Br)N(CCC1=CCCCC1)C(c1ccccc1)c1ccccc1 (stereo not given)
4. CCc1nc(Cl)nc(Cl)c1Cl
5. COC(OC)[C@@H](C)[C@H](O)[C@](C)(O)C1OC(C)(C)OC(C(C)C=C(C)C)C1C (stereo not given in full)
6. COc1cc2c(cc1O)[C@@H]1Cc3c(cc(OC)c(OC)c3Oc3cc4c(cc3OC)CCN(C)[C@@H]4Cc3ccc(O)cc3)[C@H](C2)N1C
7. CC#CCCN(CC#N)Cc1ccccc1
8. CC(=O)[O][Hg][c]1ccccc1

["46.7 µM", "> 100 µM", "> 100 µM", "19 µM", "> 100 µM", "> 100 µM", "32.9 µM", "1.91 µM"]

Okay, here is my list. What is TGI for each of these?
1. Clc1nc2n(c1/C=C/c1cccs1)CCS2
2. O=C(NNC(=O)c1cc(/C=C/c2cccc([N+](=O)[O-])c2)[nH]c(=S)n1)Nc1ccc(Cl)cc1
3. C=CCOC(=O)[C@@H]1C[C@@H](OC(C)(C)C)CN1C(=O)[C@@H]1[C@H]2OC(C)(C)O[C@H]2CN1C(=O)OCC1c2ccccc2-c2ccccc21
4. C[C@]12[C@@H]3CC[C@H]1[C@@H](OC(=O)Nc1cc([N+](=O)[O-])cc([N+](=O)[O-])c1)C(=O)N2CC3

> 100 µM
> 100 µM
34.5 µM
> 100 µM

----------
For each entry below, report its TGI value.
tested on: SF-268 CNS; experiment: NCI tumour cell line growth inhibition, 48 h

Examples with answers:
C=CCNC1=C2C[C@@H](C)C[C@@H](OC)[C@H](OC(=O)CN)[C@H](C)/C=C(\C)[C@@H](OC(N)=O)[C@H](OC)/C=C\C=C(/C)C(=O)NC(=CC1=O)C2=O; 29.7 µM
CN(C)c1ccc(/C=N\N2C(=O)c3ccccc3C2=O)cc1; > 100 µM
CS(=O)(=O)CCNCc1ccc(-c2ccc3ncnc(Nc4ccc(OCc5ccccc5)c(Cl)c4)c3c2)o1; > 25 µM
Cc1ccc(S(=O)(=O)Oc2nc3ccccc3nc2N(S(=O)(=O)c2ccc(C)cc2)S(=O)(=O)c2ccc(C)cc2)cc1; > 100 µM
NNc1[nH]c(=S)[nH]c1C(N)=O; > 100 µM
O=C1C2c3[nH]c4ccccc4c3[C@@H]3CCCCC3C2C(=O)N1c1ccccc1 (stereo not given in full); 62.9 µM
Cn1c2c(c3ccccc31)CCN(CCCCN1CCN(c3cccc(Cl)c3)CC1)C2=O; 49.9 µM
COc1cc2c(cc1OC)C(N)CC2=O (stereo not given); > 100 µM
CSc1nc2[nH]c(=O)c(C)nc2c(=O)[nH]1; > 100 µM
O=C1/C(=C/c2ccco2)N=C(c2ccccc2)N1c1cc2cc(Sc3ccccc3)ccc2[nH]1; > 25 µM

Okay, here is my list. What is TGI for each of these?
1. O=c1cc(-c2ccc(Cl)cc2)oc2cc(OCCCOc3ccc4c(=O)cc(-c5ccc(Cl)cc5)oc4c3)ccc12
2. O=C1CCc2c(sc3[nH]c(=S)n(Cc4ccccc4)c(=O)c23)C1
3. COc1cc2c(cc1OC)C(=O)C(C1=C(SC(=N)N)C(=O)c3cc(OC)c(OC)cc31)C2 (stereo not given)
4. COc1c(O)c2c(=O)cc(OC)c3c4c(OC)cc(=O)c5c(O)c(OC)c6c(c(c1C(C(C)=O)C6C(C)O)c23)c54 (stereo not given)
5. Cc1c2c(n(CCN(C)C)c1C)NN=C(C#N)S2(=O)=O
6. CCCCCCCCCCCCN(O)C(=O)c1ccccc1
7. Cc1cc(C)c(S(=O)(=O)ONC(=O)OC(C)(C)C)c(C)c1

["> 100 µM", "> 100 µM", "> 100 µM", "3.92 µM", "> 100 µM", "72.2 µM", "> 100 µM"]

Okay, here is my list. What is TGI for each of these?
1. O=C(OCc1ccc2c(Cl)cc(Cl)c(O)c2n1)c1cc2ccccc2[nH]1
2. COc1ccccc1S(=O)(=O)Nc1ccc2c(c1)CN(C)C(=O)N2
3. CCCCCCCN1C(=O)C(O)(c2ccc(C3(O)C(=O)N(CCCCCCC)c4ccccc43)s2)c2ccccc21 (stereo not given)

2.97 µM
> 100 µM
3.97 µM

----------
tested on: HCC-2998 colon; experiment: NCI tumour cell line growth inhibition, 48 h
Decide using TGI: a value greater than or equal to 20 µM is y, a smaller one is n.

For orientation, consider the following solved cases.
CCS(=O)(=O)CCn1cnc2c1c(=O)n(C)c(=O)n2C; y
C=CCN(C)CN(C)c1nc(N(C)C)nc(N(C)C)n1; y
COc1cccc(CC2Cc3ccccc3CC(=O)N2)c1 (configuration not stated); y
COc1cnc2c(c1)C(=O)c1c-2n(CCCN2CCCC2)c(=O)c2cc(F)ccc12; y
N=C(N)SCc1cccc2c(=O)cc(-c3ccccc3)oc12; y
Cc1ccc(S(=O)(=O)N2CCCC2C(=O)O[C@H]2CC[C@H]3CC=C[C@H]32)cc1 (some centres not stated); y

Form field: TGI at least 20 µM? Entry: `c1ccc(-c2nnc(-c3nsc4ccccc34)o2)cc1` y

Form field: TGI at least 20 µM? Entry: `COc1cc2nc3cc([N+](=O)[O-])ccc3c(NCCCNCC(C)(C)O)c2cc1OC` n

Form field: TGI at least 20 µM? Entry: `COc1cc(N(CCC#N)CCC#N)ccc1/C(N=Nc1ccccc1)=N/NC(=O)c1cc(Br)ccc1O` y

Form field: TGI at least 20 µM? Entry: `Cc1c2c(n(CCN(C)C)c1C)NN=C(C#N)S2(=O)=O` y

Form field: TGI at least 20 µM? Entry: `COc1ccc(C(=O)c2cc3c(N)c(C(=O)Nc4cccc(Cl)c4C)sc3nc2C)cc1` y

Form field: TGI at least 20 µM? Entry: `COc1cc(-c2cc(=O)c3cc(C)c(C)c(C(=O)O)c3o2)cc(OC)c1OC` y

Form field: TGI at least 20 µM? Entry: CC(=O)OC1CC2C(C)(C)C(=O)C=CC2(C)C2CCC3(C)C(c4ccoc4)OC(=O)C4OC43C12C (configuration not stated) n

Form field: TGI at least 20 µM? Entry: O=C(O)C1(Cc2cccc(Nc3nccs3)n2)CCC(Oc2cccc(Cl)c2F)CC1 (configuration not stated) y

----------
tested on: SK-MEL-28 melanoma; assay: NCI tumour cell line growth inhibition, 48 h
Reported endpoint: TGI

Examples with answers:
C=C(Cl)C(=C)CCC(Cl)C(C)C (stereo not given); > 100 µM
O=[N+]([O-])/C(C(Cl)=C(Cl)Cl)=C(/Sc1ccccc1)N1CCCCC1; > 100 µM
c1ccc(C[n+]2cccc(-c3cc4ccccc4[nH]3)c2)cc1; 38 µM
Cc1ccc(S(=O)(=O)Oc2nc3ccccc3nc2N(S(=O)(=O)c2ccc(C)cc2)S(=O)(=O)c2ccc(C)cc2)cc1; > 100 µM

With those in mind, consider the next molecule.
Quick check: TGI of COC(=O)[C@@]12OC[C@]34C([C@@H](O)C1O)[C@@]1(C)CC(=O)C(OC(=O)/C=C(/c5ccccc5)C(F)(F)F)=C(C)C1C[C@H]3OC(=O)[C@H](O)[C@H]42 (stereo not given in full) ? 27 µM

----------
test system: OVCAR-3 ovarian; test: NCI tumour cell line growth inhibition, 48 h; in the data active = GI50 below about 0.43 µM; inactive = the rest
Your reply should match one of these outcome classes. y = active, n = inactive

For orientation, consider the following solved cases.
CC(=O)[O][Hg][c]1ccccc1; y
O=C1CCc2c(sc3[nH]c(=S)n(Cc4ccccc4)c(=O)c23)C1; n
CS(=O)(=O)CCNCc1ccc(-c2ccc3ncnc(Nc4ccc(OCc5ccccc5)c(Cl)c4)c3c2)o1; n
CC(=O)OCC1O[C@@H]([S-])C(OC(C)=O)[C@H](OC(C)=O)[C@@H]1OC(C)=O.[Au+].c1ccc(CN2[CH-]N(Cc3ccccc3)C(c3ccccc3)=C2c2ccccc2)cc1; n
Cc1cc(C)nc(SC2=C(Nc3cccc(Cl)c3C)C(=O)N(Cc3ccccc3)C2=O)n1; n
CCOC(=O)Nc1ccc(-c2nc(-c3cccc(OC)c3)c(-c3ccnc(Br)c3)[nH]2)cc1; n
CCC[CH2][Sn]([CH2]CCC)([O]C(=O)C1CCC(=O)N1)[O]C(=O)C1CCC(=O)N1 (centres undefined); y
COc1ccc2c(c1)[n+](=O)c(C(=O)/C=C/c1cc(OC)c(OC)c(OC)c1)c(C)n2[O-]; n

Call for entry `O=C(c1ccccc1)c1nc2ccc(C(F)(F)F)cc2[n+]([O-])c1C(F)(F)F` : n

Call for entry `Nc1nnc(Cn2c(-c3ccccc3)nc3ccc(Br)cc3c2=O)s1` : n

Call for entry `C#Cc1cccc(Nc2nc3ccc([N+](=O)[O-])cc3nc2Nc2cccc(C#C)c2)c1` : y

Call for entry CCC1CCc2nc3sc(C(=O)Nc4ccccc4C)c(N)c3cc2C1 (centres undefined) : y

Call for entry O=C1c2c(O)cc(O)cc2OC(c2ccc(O)cc2O)C1O (centres undefined) : n

Call for entry `COc1cc2nc3cc([N+](=O)[O-])ccc3c(NCCCNCC(C)(C)O)c2cc1OC` : y

Call for entry `COc1ccc(-c2cc(-c3cc(OC)c(OC)c(OC)c3)c(C#N)c(N3CCOCC3)n2)cc1O` : n

Call for entry `CCCCC#CC#Cc1cccc(=O)o1` : n

Call for entry `Cc1ccc(S(=O)(=O)Cc2nc(-c3ccc(C(=O)NCc4cccnc4)cc3)oc2C)cc1` : n

Call for entry `CCOC(=O)c1cc2c(n1Cc1ccccc1)-c1oncc1CC2` : n

Call for entry `N#Cc1ccc(C(c2ccc(C#N)cc2)n2cncn2)cc1` : n
